Below: a set of entries, each annotated with reported %RA at 10 µM ±SEM mAChE.
tested-target: mAChE (Mus musculus)
Construct: donated by Florian Nachon (IBS, Grenoble)
Sequence (P21836 32-614): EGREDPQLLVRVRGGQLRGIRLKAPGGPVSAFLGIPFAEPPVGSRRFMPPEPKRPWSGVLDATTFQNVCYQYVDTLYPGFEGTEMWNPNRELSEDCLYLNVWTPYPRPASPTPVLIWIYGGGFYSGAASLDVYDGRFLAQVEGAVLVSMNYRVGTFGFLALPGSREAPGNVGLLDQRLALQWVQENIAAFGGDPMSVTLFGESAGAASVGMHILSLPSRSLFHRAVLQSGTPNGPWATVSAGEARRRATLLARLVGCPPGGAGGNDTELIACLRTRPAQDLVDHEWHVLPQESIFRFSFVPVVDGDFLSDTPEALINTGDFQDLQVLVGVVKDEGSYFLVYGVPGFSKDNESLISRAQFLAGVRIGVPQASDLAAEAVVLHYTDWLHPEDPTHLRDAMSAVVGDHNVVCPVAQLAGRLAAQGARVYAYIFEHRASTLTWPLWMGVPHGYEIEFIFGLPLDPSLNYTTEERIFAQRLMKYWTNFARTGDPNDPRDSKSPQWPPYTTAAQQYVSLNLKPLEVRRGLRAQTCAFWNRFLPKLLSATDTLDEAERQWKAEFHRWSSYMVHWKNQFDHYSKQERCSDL
assay-protocol: In-vitro inhibitory activity against mAChE, method of Ellman
Assay type: biochemical, murine
particulars: residual activity at 10 µM; %RA >75% was considered no inhibition; Supplementary Table 1

Check out these entries, answers already filled in.
| compound | %RA at 10 µM ±SEM mAChE |
| --- | --- |
| COCCN(CC1CCCN(Cc2ccccc2)C1)S(=O)(=O)c1ccc2ccccc2c1 (racemic) | 97% ±2% |
| COCCN(CC1CCCN(C2Cc3ccccc3C2)C1)S(=O)(=O)c1ccc(NC(C)=O)cc1 (racemic) | 85% ±5% |
| CCCN(CC1CCCN(Cc2ccccc2)C1)S(=O)(=O)c1ccc2ccccc2c1 (racemic) | 84% ±3% |
| O=S(=O)(NCC1CCCN(Cc2ccc(F)cc2Cl)C1)c1ccc2ccccc2c1 (racemic) | 73% ±4% |
| COCCN(CC1CCCN(C2Cc3ccccc3C2)C1)S(=O)(=O)c1ccc(N)cc1 (racemic) | 91% ±1% |

**Query** Give the measured %RA at 10 µM ±SEM mAChE of COCCN(CC1CCCN(Cc2ccc(C#N)cc2)C1)S(=O)(=O)c1ccc2ccccc2c1 (racemic) .
**Result** 97% ±2%
